Taken from ChEMBL document CHEMBL1133336.

molecular target: Serine protease 1 (Homo sapiens, UniProt P07477)
Sequence (P07477 whole entry): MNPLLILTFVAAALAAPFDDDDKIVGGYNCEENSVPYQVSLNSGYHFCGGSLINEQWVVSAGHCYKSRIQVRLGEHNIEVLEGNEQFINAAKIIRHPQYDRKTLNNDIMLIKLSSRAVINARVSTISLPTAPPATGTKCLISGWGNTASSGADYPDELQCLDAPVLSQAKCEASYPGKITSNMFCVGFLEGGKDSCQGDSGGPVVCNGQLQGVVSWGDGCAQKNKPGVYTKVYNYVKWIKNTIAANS
pIC50: −log10 of the molar value.
readout: pIC50

(1) N=C(N)N1CCC[C@H](NC(=O)C2CC3CCC(O)CC3N2C(=O)[C@@H](Cc2ccc(O)cc2)NC(=O)[C@H](O)Cc2ccc(OS(=O)(=O)O)cc2)C1O (some centres not stated)
(2) CC[C@H](C)[C@H](NC(=O)C(O)Cc1ccc(O)c(Cl)c1)C(=O)N1C2CC(OS(=O)(=O)O)CCC2C[C@H]1C(=O)NCCCCN=C(N)N (some centres not stated)
Request: // compare: 1 vs 2 , metric pIC50, want the smaller Pick one and reply with its label.
Result: 2
